target.under.test: T1, recombinant Plasmodium falciparum circumsporozoite protein (CSP) (Plasmodium falciparum, UniProt Q7K740 21-375)
T1 construct: also called recombinant CSP
measurement.description: SPR, recombinant CSP
Please go through the items and note down their log10 of kon.
All values: base-10 log of kon in M⁻¹ s⁻¹.

Given AB-001545 (antibody, V domains shown) VH: QVQLVESGGGVVQPGRSLRLSCAASGFTFSSYGMHWVRQAPGKGLEWVAVIWYDGSNKYYADSVKGRFTISRDNSKNTLYLQMNSLRAEDTAVYYCARDLDYSNHNWFDPWGQGTLVTVSS VL: EIVLTQSPATLSLSPGERATLSCRASQSVSSYLAWYQQKPGQAPRLLIYDASNRATGIPARFSGSGSGTDFTLTISSLEPEDFAVYYCQQRSNWFTFGQGTRLEIK , state its recorded log10 of kon. 4.95

Please look up its log10 of kon: AB001458 (antibody, V domains shown) VH: EVQLVESGGGLVQPGRSLRLSCTASGFTFGDYAMSWFRQAPGKGLEWVSFIRSKTYGGSTEYAASVKGRFTISRDDSKSIAYLQMHSLKTEDTAFYYCTRVSAAAGVGDYWGQGTLVTVSS VL: EIVMTQSPATLSVSPGERATLSCRASQSVGSNLAWYQQKPGQAPRLLIYGASTRATGLPARFSGSGSATEFTLTISSLQSEDFAVYYCQQYNTWWTFGQGTKVEIK 6.27

What value of log10 of kon has been recorded for this entry: AB001428 (antibody, V domains shown) VH: QVQLVESGGGVVQPGRSLRLSCVVSGFTFSSYGMHWVRQAPGKGLEWVAIIWYDGSKKYYADSVKGRFTISRDNSKNTLYLQMNSLRAEDTAVYYCARPGDSSGSHGEAFDIWGQGTMVTVSS VL: DIQMTQSPSTLSASVGDRVTITCRPSQSISNWLAWYQQKPGKAPKLLIYKASSLESGVPSRFSGSGSGTEFTLTISGLQPDDFATYYCQQYNTYWTFGQGTKVEIK 5.93

Fill in the blank: the reported log10 of kon of AB-000327 (antibody, V domains shown) VH: QVQLVESGGGVVQPGRSLRLSCAASRFTFKNYGMHWVRQGPGKGLEWVAVIWYDGSQEYYVDSVRGRFTISRDNSKDTLYLQMNSLRAEDTAVYYCVRDGRYRTSHQTSTGFFDLWGQGTLVTVSS VL: QSMLTQPPSVSGAPGQRVTISCTGSSSNIGADYDVHWYQQLPGTAPKLLIYGNNNRPSGVPDRFSGSKSGTSASLAITGLQPEDEAEYYCQSYDSSLSGSFVFGTGTKVTVL is ____. 6.49

# lookup: log10 of kon of AB001578 (antibody, V domains shown) VH: QVQLVESGGGVVQPGRSLRLSCAASGFSFSNYGMHWVRQAPGKGLEWVAIIWYDGSNKYYADSVKGRFTISRDNSKNTLYLQMNSLRAEDTAVYYCARDGTIWDDSRGYILDYWGQGTLVTVSS VL: EIVLTQSPATLSLSPGERATLSCRASQGVSSYLAWYQQKPGQAPRLLIYDASNRATGIPARFSGSGSGTDFTLTISSLEPEDFAVYYCQQRSNWPPTFGPGTKVDIK 5.57
